Biological target: human liver-glucuronidase (hβG) (Homo sapiens, UniProt P08236)
Sequence (P08236 23-651): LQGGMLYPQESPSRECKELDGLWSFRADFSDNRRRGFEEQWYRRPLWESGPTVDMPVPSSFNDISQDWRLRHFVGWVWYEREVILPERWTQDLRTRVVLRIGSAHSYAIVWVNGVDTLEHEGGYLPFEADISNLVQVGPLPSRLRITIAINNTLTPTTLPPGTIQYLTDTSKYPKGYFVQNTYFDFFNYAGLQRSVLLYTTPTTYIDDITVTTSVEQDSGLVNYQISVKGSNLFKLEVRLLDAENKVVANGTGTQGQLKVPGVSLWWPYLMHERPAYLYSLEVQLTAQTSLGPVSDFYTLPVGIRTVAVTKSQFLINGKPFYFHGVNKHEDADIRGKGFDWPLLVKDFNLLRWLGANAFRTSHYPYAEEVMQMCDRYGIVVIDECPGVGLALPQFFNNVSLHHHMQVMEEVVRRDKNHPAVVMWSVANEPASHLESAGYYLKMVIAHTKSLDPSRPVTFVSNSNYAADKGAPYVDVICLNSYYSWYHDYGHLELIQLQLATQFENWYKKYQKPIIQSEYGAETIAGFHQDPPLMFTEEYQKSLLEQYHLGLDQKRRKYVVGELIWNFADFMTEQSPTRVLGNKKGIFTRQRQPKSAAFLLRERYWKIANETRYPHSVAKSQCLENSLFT
Assay: Inhibition of purified recombinant hβG activity (pNPG substrate, OD420)
Assay type: biochemical
Conditions: 10 μM; purified recombinant hβG, pNPG; means ± S.D. of at least three separate experiments; read-out: Percent activity of human liver-glucuronidase at 10 μM (%)
Hi there, I'd appreciate the recorded remaining activity at 10 µM for every entry that follows.
Give bare numbers, in %.

Recorded results for 3 compounds are shown here.
Bench note: what remaining activity at 10 µM did COc1ccc(NC(=O)Nc2n[nH]c3c2c(=O)[nH]c2ccccc23)cc1 show?
81.5

Endpoint output: remaining activity at 10 µM of Nc1n[nH]c2c1c(Nc1ccc(Cl)cc1)nc1cc(F)ccc12 . Value?
83.5

Value lookup for remaining activity at 10 µM; key = Nc1n[nH]c2c1c(Nc1ccccc1)nc1ccccc12
106

Give me remaining activity at 10 µM for each of these compounds, listed below.
1. Nc1n[nH]c2c1c(Nc1ccc(O)cc1)nc1ccccc12
2. O=C(Nc1ccccc1)Nc1n[nH]c2c1c(Nc1ccc(Cl)cc1)nc1ccccc12
3. COc1ccc(Nc2nc3ccccc3c3[nH]nc(N)c23)cc1
4. Nc1n[nH]c2c1c(Nc1ccc([N+](=O)[O-])cc1)nc1ccccc12
5. Nc1n[nH]c2c1c(Nc1ccc(Cl)cc1)nc1ccc(Cl)cc12
6. Cc1cccc(Nc2nc3ccccc3c3[nH]nc(N)c23)c1

95
83.1
102
90.9
77
102
